target: furin, P09958; assay: furin cleavage Z-score vs untreated control; higher = more cleavage, active = 3.5 or more, inactive = 1 or less, 8 variable residues between constant flanks; conditions: 30 min;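 note: purified furin at 1:10 enzyme:substrate in 50 mM HEPES pH 7.5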
Sequence (P09958 whole entry): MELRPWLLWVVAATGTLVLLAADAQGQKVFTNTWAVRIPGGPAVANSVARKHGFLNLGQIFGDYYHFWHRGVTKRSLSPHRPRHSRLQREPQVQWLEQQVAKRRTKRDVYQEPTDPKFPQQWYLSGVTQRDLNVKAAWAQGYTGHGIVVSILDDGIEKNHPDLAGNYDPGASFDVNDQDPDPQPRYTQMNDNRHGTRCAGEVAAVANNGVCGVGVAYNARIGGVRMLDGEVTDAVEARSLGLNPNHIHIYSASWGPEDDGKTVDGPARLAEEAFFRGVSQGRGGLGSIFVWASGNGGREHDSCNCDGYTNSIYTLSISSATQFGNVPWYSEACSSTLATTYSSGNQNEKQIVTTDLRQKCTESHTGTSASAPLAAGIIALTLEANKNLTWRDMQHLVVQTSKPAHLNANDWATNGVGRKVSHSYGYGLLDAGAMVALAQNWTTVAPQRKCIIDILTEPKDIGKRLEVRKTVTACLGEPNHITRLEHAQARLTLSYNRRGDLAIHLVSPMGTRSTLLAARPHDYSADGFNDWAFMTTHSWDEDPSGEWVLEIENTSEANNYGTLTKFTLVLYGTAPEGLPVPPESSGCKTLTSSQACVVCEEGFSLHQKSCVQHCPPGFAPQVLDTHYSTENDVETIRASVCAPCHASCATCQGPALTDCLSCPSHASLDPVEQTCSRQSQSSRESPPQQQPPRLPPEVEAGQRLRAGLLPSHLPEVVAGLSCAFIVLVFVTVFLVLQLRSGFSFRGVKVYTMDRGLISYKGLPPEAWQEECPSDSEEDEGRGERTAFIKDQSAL
The other results are listed elsewhere or left out. How many sequences the whole screen found active is unknown.
# valid calls are active, inactive; nothing else

Here are 10 sequences together with their reported answers.
| RESIDUE SEQUENCE | DISCRETE LABEL |
| --- | --- |
| CARKRRNLETAGNASASA [FS-2700] | active |
| CAEVVTSTWCAGNASASA [HC2260] | inactive |
| CALALLSCLTAGNASASA [HC250] | inactive |
| CASTVCSAHLAGNASASA [HC2510] | inactive |
| CAASGREGRDAGNASASA [FS-402] | inactive |
| CATKPCSGSWAGNASASA [HC1854] | inactive |
| CATTMRSPVFAGNASASA [HC762] | inactive |
| CATPRRQKRLAGNASASA [FS-881] | active |
| CARMRRDGWPAGNASASA [FS-2723] | active |
| CARLKRDRSAAGNASASA [FS-2220] | active |

Query string: Please state the recorded outcome for this sequence: CARMRRALVFAGNASASA [FS-3001]
Result string: active

Query string: What do you get for CATTPCSTSWAGNASASA [HC1898] ?
Result string: inactive

Query string: What do you get for CARLKRLFLAAGNASASA [FS-2991] ?
Result string: inactive

Query string: What do you get for CARLKPTLHGAGNASASA [HC967] ?
Result string: inactive

Query string: What do you get for CAILQASLLKAGNASASA [HC611] ?
Result string: inactive

Query string: What do you get for CASCPCSAHLAGNASASA [HC2500] ?
Result string: inactive

Query string: What do you get for CALGDREKRDAGNASASA [FS-548] ?
Result string: active

Query string: What do you get for CAVVCCSMVYAGNASASA [HC2070] ?
Result string: inactive

Query string: What do you get for CASTGLYHVTAGNASASA [HC259] ?
Result string: inactive

Query string: What do you get for CARMRRPPGGAGNASASA [FS-2496] ?
Result string: inactive

Query string: What do you get for CAYIEQGMMLAGNASASA [HC1019] ?
Result string: inactive

Query string: What do you get for CARRRRDLGSAGNASASA [FS-2517] ?
Result string: active

Query string: What do you get for CARQQRDEETAGNASASA [FS-2401] ?
Result string: inactive

Query string: What do you get for CAMILMTHFFAGNASASA [HC1582] ?
Result string: inactive

Query string: What do you get for CATTPCSVSWAGNASASA [HC1890] ?
Result string: inactive

Query string: What do you get for CARKRRANSLAGNASASA [FS-3194] ?
Result string: active
